tested on: SF-268 CNS; test: NCI-60 one-dose screen, 48 h (100 = growth as untreated, 0 = no growth, -100 = all killed); conditions: 10 µM unless noted
About 83,000 compounds went through this panel and 20% of them were active in at least one assay; those are over-represented in the sample as a whole.
// boundary case: growth equal to 90% maps to No; strictly smaller maps to Yes

Dear colleague, could you confirm whether growth of CC(=O)O[C@H]1CC[C@H]2[C@@H]3CC[C@H]4CC=C(C)C[C@]4(C)[C@H]3CC[C@]12C falls below 90%? Thanks. No

Dear colleague, could you confirm whether growth of NC(=O)SCC(=O)Nc1ccc([As](=O)(O)O)cc1 falls below 90%? Thanks. No

Dear colleague, could you confirm whether growth of CC(CC(C#N)(c1ccccc1)c1ccccc1)N1CCOCC1 (stereo not drawn) falls below 90%? Thanks. No

Dear colleague, could you confirm whether growth of O=C(O)c1[nH]c(=O)[nH]c(=O)c1F falls below 90%? Thanks. Yes

Dear colleague, could you confirm whether growth of NCCc1cc(O)c(O)cc1O falls below 90%? Thanks. No

Dear colleague, could you confirm whether growth of CNC(=O)Oc1ccccc1-c1ccccc1 falls below 90%? Thanks. No

Dear colleague, could you confirm whether growth of CNC(=O)O/N=C(/C)c1ccc(Cl)cc1 falls below 90%? Thanks. No

Dear colleague, could you confirm whether growth of CCC1CN1P(=O)(OCCOC)N1CC1CC (stereo not drawn) falls below 90%? Thanks. No

Dear colleague, could you confirm whether growth of CNC(=O)Oc1cccc(N(C)C)c1 falls below 90%? Thanks. No

Dear colleague, could you confirm whether growth of O=C(CF)N(O)c1ccc(/C=C/c2ccccc2)cc1 falls below 90%? Thanks. Yes

Dear colleague, could you confirm whether growth of O=C1C=CC(=O)C2C1C1(Cl)C(Cl)=C(Cl)C2(Cl)C1(Cl)Cl (stereo not drawn) falls below 90%? Thanks. Yes

Dear colleague, could you confirm whether growth of CC(C)CCC1(CCO)C(=O)NC(=S)NC1=O falls below 90%? Thanks. No

###

test system: HL-60(TB) leukemia; experiment: NCI-60 one-dose screen, 48 h (100 = growth as untreated, 0 = no growth, -100 = all killed); details: 10 µM unless noted
About 83,000 compounds went through this panel and 20% of them were active in at least one assay; those are over-represented in the sample as a whole.
resultType: growth (%)
# value in %; strip the unit string

Give its growth value. Item: Cc1cc(O)cc(-c2nn(C)cc2-c2cc(N3CCOCC3)nc(-c3cccnc3)n2)c1 14.8

Give its growth value. Item: CC(C)NC(=O)OCc1c(COC(=O)NC(C)C)c(-c2ccc(Cl)c(Cl)c2)n2c1SCC2 7.43

Give its growth value. Item: O=S(=O)(NCCCNc1cc(-c2cn(-c3ccccc3)nc2-c2cccc(O)c2)ccn1)c1cccc(F)c1 39.1

Give its growth value. Item: Cc1cc(NCCCCNc2ccnc3cc(Cl)ccc23)nc(Nc2ccc(C(=O)N3CCCCC3)cc2)n1 -59.3

Give its growth value. Item: CCN(CC)C(CC(=O)c1ccccc1)C(=O)c1ccccc1 (stereo not given) 63.5

Give its growth value. Item: C#CCN1C(=O)/C(=c2\sc3n(c2=O)NC2C(N=3)N(CC)C(=O)N2CC)c2ccccc21 (stereo not given) -34.3

Give its growth value. Item: CC(C)NCC(O)COc1ccc(CCOCC2CC2)cc1 (stereo not given) 92.8

Give its growth value. Item: Cc1ccc(C(=O)NCCCNc2nccc(-n3ccc4cccnc43)n2)cc1 105

Give its growth value. Item: Cc1ccc(C23CCC(=O)N2CCc2cncn23)cc1 (stereo not given) 95.7

Give its growth value. Item: O=C(c1ccccc1)c1ccc(C2CCCCC2)cc1 101

###

system: MOLT-4 leukemia; assay: NCI-60 one-dose screen, 48 h; details: 10 µM
Compounds without any hit were thinned out: in the full panel of roughly 83,000, 20% have a hit. The source made the active and inactive calls. The calls were made as follows: active = growth percent below 10; inactive = the rest.
Your response should consist of one outcome taken from active, inactive

Kindly provide the recorded test outcome for the following compound: O=C(Nc1ccc(S(=O)(=O)F)cc1)Oc1ccccc1 inactive

Kindly provide the recorded test outcome for the following compound: CC(/C=N/N=C(N)N)=N/N=C(N)N inactive

Kindly provide the recorded test outcome for the following compound: CCCCNCCc1ccccn1 inactive

Kindly provide the recorded test outcome for the following compound: CC1=C(SCCC(=O)OCC(=O)NCCC[Te]c2ccccc2)C(=O)c2ccccc2C1=O active

Kindly provide the recorded test outcome for the following compound: CC(N)Cc1ccc(O)cc1 (configuration not stated) inactive

Kindly provide the recorded test outcome for the following compound: Nc1c(Br)cc2c3c(cccc13)-c1ccccc1-2 inactive

Kindly provide the recorded test outcome for the following compound: CC(=O)Nc1ccc(Cc2ccc(NC(C)=O)cc2)cc1 inactive

Kindly provide the recorded test outcome for the following compound: CC1(C)CC(=O)CC(C)(C)N1N=O inactive

Kindly provide the recorded test outcome for the following compound: Cc1cc(CCl)c(C)cc1CCl inactive

Kindly provide the recorded test outcome for the following compound: C/C(=C\c1cc(C(F)(F)F)n(-c2ccc(N)cc2)n1)[C@@H]1C[C@@H]2O[C@]2(C)CCC[C@H](C)[C@H](O)[C@@H](C)C(=O)C(C)(C)[C@@H](O)CC(=O)O1 active

Kindly provide the recorded test outcome for the following compound: CC(=O)N(C)C1=Nc2ccc(Cl)cc2C(c2ccccc2)=[N+]([O-])C1 inactive

Kindly provide the recorded test outcome for the following compound: CCCCCCCCCCOc1ccc(C(=O)Oc2ccc(CSP3(=O)OCC4OC(n5ccc(=O)[nH]c5=O)C(F)C4OP(=O)(O)OCC4OC(n5cnc6c(N)ncnc65)C(F)C4O3)cc2)cc1 (configuration not stated) inactive

Kindly provide the recorded test outcome for the following compound: O=S(=O)(O)c1ccc(-c2ccc([As](=O)(O)O)cc2)cc1 inactive

Kindly provide the recorded test outcome for the following compound: Clc1ccc(SSC(Cl)(Cl)Cl)cc1 inactive

Kindly provide the recorded test outcome for the following compound: Cc1cccc(N=C2c3cc([N+](=O)[O-])ccc3-c3c2cc([N+](=O)[O-])cc3[N+](=O)[O-])c1 inactive

Kindly provide the recorded test outcome for the following compound: O=[N+]([O-])c1cc([N+](=O)[O-])c(Cl)c(Cl)c1Cl active

Kindly provide the recorded test outcome for the following compound: CCN(CC)c1ccc(C=C2C(=O)NC(=S)NC2=O)cc1 inactive

Kindly provide the recorded test outcome for the following compound: Cc1cc(NC(=O)/C=C/c2ccc([N+](=O)[O-])cc2)ccc1S(=O)(=O)F inactive

Kindly provide the recorded test outcome for the following compound: CNC(C)Cc1ccccc1 (configuration not stated) (tested in a mixture with another compound) inactive

Kindly provide the recorded test outcome for the following compound: ClCCN(CCCl)c1nc(Cl)c(C2CC(c3ccccc3)=NN2c2ccccc2)s1 (configuration not stated) inactive

Kindly provide the recorded test outcome for the following compound: COc1ccc(C2SCC(=O)Nc3c2c(C)nn3-c2nc3ccc(C)cc3s2)cc1O (configuration not stated) inactive

Kindly provide the recorded test outcome for the following compound: COC(=O)C1CC2c3ccccc3C1c1ccccc12 (configuration not stated) inactive

###

system: HL-60(TB) leukemia; experiment: NCI-60 one-dose screen, 48 h (100 = growth as untreated, 0 = no growth, -100 = all killed); conditions: 10 µM unless noted
The panel holds about 83,000 compounds, 20% with a hit somewhere; the sample as a whole holds those more often.
// boundary case: growth equal to 70% maps to rule not met; strictly smaller maps to rule met

Dear colleague, could you confirm whether growth of Cn1c(=O)c2c(nc3n(-c4ccc(Cl)cc4Cl)c(Sc4nc(-c5ccccc5)c(C#N)c(=O)[nH]4)cn23)n(C)c1=O falls below 70%? Thanks. rule not met

Dear colleague, could you confirm whether growth of N#CC1c2ccccc2-c2ccccc2N1C(=O)c1ccccc1 (stereo unspecified) falls below 70%? Thanks. rule met

Dear colleague, could you confirm whether growth of CC1=CC(C)=Nc2ccc(Cl)cc2N1 falls below 70%? Thanks. rule not met

Dear colleague, could you confirm whether growth of NC1CCC(Nc2nc(NCc3cc(Cl)ccc3O)c3ncn(C4CCCC4)c3n2)CC1 (stereo unspecified) falls below 70%? Thanks. rule met

Dear colleague, could you confirm whether growth of O=C(CC(C(=O)c1ccccc1)N1CCOCC1)c1ccccc1 (stereo unspecified) falls below 70%? Thanks. rule met

###

Could you please report measured growth for the items listed next?
test system: HL-60(TB) leukemia; experiment: NCI-60 one-dose screen, 48 h (100 = growth as untreated, 0 = no growth, -100 = all killed); settings: 10 µM unless noted
Compounds without any hit were thinned out: in the full panel of roughly 83,000, 20% have a hit.
# value in %; strip the unit string

Give its growth value. Item: C[C@H]1[C@H](OC(=O)CCC(=O)O)O[C@@H]2O[C@]3(C)CC[C@H]4[C@H](C)CC[C@@H]1[C@@]24OO3 -30.5

Give its growth value. Item: O=C(Nc1ccc(F)cc1)c1cc2cc(Nc3nc(-c4ccccc4)nc4ccccc34)ccc2oc1=O 102

Give its growth value. Item: CC1=C(C)C(=O)C(C(C)C2=C(C)C(=O)C(C)=C(C)C2=O)=C(C)C1=O 42.5

Give its growth value. Item: CN(C)CCOc1ccc(/C(=C(/CCCl)c2ccccc2)c2ccccc2)cc1 -33

Give its growth value. Item: O=C(Nc1ccccc1)c1ccco1 95.7

Give its growth value. Item: COc1cccc(-c2nc3sccn3c2-c2cccc(S(C)(=O)=O)c2)c1 98.3

Give its growth value. Item: O=C(/C=C/c1cccc(Oc2ccccc2)c1)c1ccc(Nc2nc(Nc3ccc(F)cc3)nc(Nc3ccc(Cl)cc3)n2)cc1 -38.2

Give its growth value. Item: COC(=O)Cc1nc(C#N)c(N(C)C)o1 99.5

Give its growth value. Item: COc1ccc(C(=O)/C=C/c2ccccn2)c(O)c1 23.4

Give its growth value. Item: Nc1ccccc1NC(=O)c1ccc(CSc2nc(N3CCOCC3)c3cccn3n2)cc1 -19.4

Give its growth value. Item: Nc1ccc(C2=Nc3cccc4cccc(c34)S2)cc1 76.7

Give its growth value. Item: CCN(CC)c1cc(C)c(Cc2c(OC)ccc3ccccc23)cc1C 82.2

Give its growth value. Item: O=C1/C(=C/c2ccc(O)c(O)c2)COc2ccc(-c3ccccc3)cc21 -15.8

Give its growth value. Item: O=S(=O)(OCCO)c1ccccc1 107

Give its growth value. Item: O=C1Nc2cc(-c3ccc(O)cc3)ccc2/C1=C/c1ccc[nH]1 -8.12

Give its growth value. Item: Cc1nc2ccccc2c(N)c1-c1cc(C)c2c(C)nc3ccccc3c2n1 -66.5

Give its growth value. Item: Nc1nc(=O)n([C@H]2CC=C(CO)O2)cc1F 88

Give its growth value. Item: O=C(/C=C/c1cccc(Cl)c1)c1cccc(OCCCOc2cccc(C(=O)/C=C/c3cccc(Cl)c3)c2)c1 93.1

Give its growth value. Item: O=C(Nc1ncc(Cc2ccc(Cl)cc2)s1)C1=NCCCCN1 97

Give its growth value. Item: O=C(Nc1ccc2c(c1)OCO2)C(=O)c1c[nH]c2cc(F)ccc12 53.5

Give its growth value. Item: O=C(Nc1cccc(Cl)c1)Oc1c(Br)c(Br)c(Br)c(Br)c1Br 88.4

Give its growth value. Item: COC(=O)C(N)CSC(c1ccccc1)(c1ccccc1)c1ccccc1 (stereo unspecified) -28.7

Give its growth value. Item: COc1cc2c(cc1O)CC[C@@H]1[C@@H]2CC[C@]2(C)[C@@H](NCCN(C)C)CC[C@@H]12 -67.7

Give its growth value. Item: O=C1/C(=C/c2ccc(F)cc2)CN(C(=O)C(Cl)Cl)C/C1=C\c1ccc(F)cc1 -34

Give its growth value. Item: CC(C)c1ccc(C(=O)OCCCl)cc1 85.5

Give its growth value. Item: COc1ccc(-c2nc3sc(C)cn3c2/C=C/C(=O)c2cc(OC)c(OC)c(OC)c2)cc1 55.9

Give its growth value. Item: O=C(N/N=C/c1cc2ccccc2c2ccccc12)c1cc(O)c(O)c(O)c1 39.9

Give its growth value. Item: COc1ccc2c(c1)cn1c3ccc(O)cc3[nH]c(=O)c21 -21.7

Give its growth value. Item: CCCCCCCCCCCC(c1ccccc1)[N+](C)(C)C (stereo unspecified) -30.5

Give its growth value. Item: COc1cc2oc(-c3cccc(NC(=O)Nc4ccc5c(c4)OCO5)c3)cc(=O)c2c(OC)c1OC 56.8

Give its growth value. Item: Cn1cnc([N+](=O)[O-])c1/C=C1\Oc2ccc(Cl)cc2C1=O 60

Give its growth value. Item: Cc1cc(C(=O)O)c(C)n1-c1cccc(C(=O)O)c1 56.2

Give its growth value. Item: Clc1ccc2[nH]c3c(NCCCN4CCOCC4)ncnc3c2c1 36.3

Give its growth value. Item: NNCCc1ccc(NC(=O)CCCc2ccc(C(=O)Nc3ccccc3N)cc2)cc1 32.6

Give its growth value. Item: NS(=O)(=O)c1ccc(CCn2c(SCC(=O)c3ccc(Cl)cc3)nc3ccccc3c2=O)cc1 95.5

Give its growth value. Item: COc1cc(C(=O)/C(C)=C/c2c[nH]c3ccccc23)cc(OC)c1OC -9.27

Give its growth value. Item: O=C(CSc1nnc(Cc2ccccc2Nc2c(Cl)cccc2Cl)n1-c1ccccc1)N1N=C(c2ccc3ccccc3c2)CC1c1ccc(Cl)cc1 (stereo unspecified) 98

Give its growth value. Item: O=C1C=C(OCC=C(Cl)Cl)C(=O)c2ccccc21 -1.08

Give its growth value. Item: CCN1C(=O)N(CC)C2Nn3c(s/c(=C4\C(=O)N(CCC(C)C)c5ccccc54)c3=O)=NC21 (stereo unspecified) 83.1

Give its growth value. Item: N#C/C(=C\c1ccc(-c2ccc(Br)cc2)o1)c1nc(-c2cccs2)cs1 92.7

Give its growth value. Item: CN(C)[C@@H]1C(=O)C(C(N)=O)=C(O)[C@@]2(O)C(=O)C3=C(O)c4c(O)cc(CN5CCc6ccccc6C5)c(Cl)c4C[C@H]3C[C@@H]12 -64.8
